Each recorded value in this set is attributed to patent US12338203B2.

biological target: human LPAR1 (Homo sapiens, UniProt Q92633); construct: expressed in transfected cells; assay: Test Example 1: antagonism against response of LPA-induced increase in intracellular Ca2+ concentration in RH7777 cells stably expressing human LPAR1; type: cell-based; conditions: RH7777 cells stably expressing human LPAR1; Fluo-4 fluorescence, FDSS6000; read-out: IC50 value (concentration producing 50% antagonism against response of LPA-induced increase in intracellular Ca2+ concentration) (converted)
Sequence (Q92633 whole entry): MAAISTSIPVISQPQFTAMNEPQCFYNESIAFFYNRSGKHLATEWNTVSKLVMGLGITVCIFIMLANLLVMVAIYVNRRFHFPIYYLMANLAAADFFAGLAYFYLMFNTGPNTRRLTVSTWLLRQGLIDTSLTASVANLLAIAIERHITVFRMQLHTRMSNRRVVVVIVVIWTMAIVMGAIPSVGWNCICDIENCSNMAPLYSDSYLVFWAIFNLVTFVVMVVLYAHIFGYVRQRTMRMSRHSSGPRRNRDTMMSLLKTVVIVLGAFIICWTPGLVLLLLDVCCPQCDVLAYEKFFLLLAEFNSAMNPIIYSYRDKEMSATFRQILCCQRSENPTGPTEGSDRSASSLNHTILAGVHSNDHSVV
The following compounds are listed with their measured IC50 values.

{"compound": "CCOc1cc([C@@H](C)N(CCCCc2ccccc2)C(=O)NC2(C(=O)O)CC(OCC)C2)cc(OCC)c1C(C)O (stereo partly drawn) [Example 1-99]", "units_of_measure": "nM", "IC50": 2.58}
{"compound": "CCOc1cc([C@@H](C)N(CCO[C@@H](C)c2ccccc2)C(=O)NC2(C(=O)OC)CC2)c(Cl)c(OCC)c1C(C)=O [Example 6-3]", "units_of_measure": "nM", "IC50": 672}
{"compound": "CCOc1cc([C@@H](C)N(CCOCc2ccccc2)C(=O)NC2CCOCC2C(=O)O)c(Cl)c(OCC)c1C(C)O (single isomer, unassigned) [Example 5-69]", "units_of_measure": "nM", "IC50": 3.3}
